Cited source for all entries: paper PMC6773697

Tested on: leukemic cells (HL-60, MOLT-4, THP-1)
test-details: XTT cytotoxicity assay, leukemic cells overall
Type: cell-based, human
setup-conditions: XTT, leukemic cell lines
measured-parameter: cytotoxicity (in words)

Below, each entry is followed by its recorded cytotoxicity (in words) result.
1. CN(C)C=Nc1nc(Cl)nc2c1ncn2[C@H]1C[C@H](O)[C@@H](CO)O1; low cytotoxicity
2. OC[C@H]1O[C@@H](n2cnc3c(N=CN4CCCC4)nc(Cl)nc32)C[C@@H]1O; high cytotoxic activity
3. OC[C@H]1O[C@@H](n2cnc3c(N=CN4CCCCCC4)nc(Cl)nc32)C[C@@H]1O; low cytotoxicity
4. OC[C@H]1O[C@@H](n2cnc3c(N=CN4CCOCC4)nc(Cl)nc32)C[C@@H]1O; high cytotoxic activity
5. CN1CCN(C=Nc2nc(Cl)nc3c2ncn3[C@H]2C[C@H](O)[C@@H](CO)O2)CC1; low cytotoxicity

--- query ---
Look at this compound and give its reported cytotoxicity (in words). OC[C@H]1O[C@@H](n2cnc3c(N=CN4CCCCC4)nc(Cl)nc32)C[C@@H]1O
high cytotoxic activity
